Data provenance: the supplement of paper PMC10567573

The following sequences are shown together with reported protein stability index values.
# PROCEDURE SUMMARY: protein stability index of a GFP-peptide fusion (GPS, HEK-293T) (PSI 1-6); higher = more stable;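 note: 24-mer peptide tiles fused after GFP, lentivirally expressed, FACS-sorted into six equal bins by GFP/DsRed ratio, decoded by Illumina sequencing, PSI is the read-weighted mean bin number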
# MEASUREMENT CONDITIONS: treatment: MLN4924 1 uM, 8 h; c terminus: a fixed tail appended
ENDPOINT LABEL: protein stability index

> print(dat)
                        residue.codes  experimental.value
1    SSSSGRLSEPDPSHTLEERVVHWY [SMOC2]                 3.1
2     LNERKQASAIKKEELVARSETHAA [CHGB]                   5
3    GHKEEEDGEGAGPGEQGGGKLVLS [ESRRA]                5.42
4   GFWEEERPFWEEEKTFWKEEKSFW [CCDC70]                3.27
5   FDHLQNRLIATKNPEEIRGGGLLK [TENT5C]                4.09
6  RKDKDVARLQDFQELELVLMISEN [ANKRD40]                2.13
7   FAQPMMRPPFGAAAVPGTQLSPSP [SNAP91]                3.71
8   ICPICLEMFTKPVVILPCQHNLCR [TRIM55]                2.96
